Attribution: patent US5773447A

- protocol details: Metabolic stability: dealkylation to compound A in in vitro incubations (HPLC)
- Format: in vitro ADME
- condition label: human, liver 9000 g fraction; incubation time 3 h, 37° C.; R1-dealkylated metabolite; read-out: relative content of compound A
Where a name gives a salt, the structure may show the parent alone.
outcome measure: metabolised at 3 h (%)

- CCN(C(=O)c1cnc(N2CC(C)(C)NC2=O)nc1N)c1cccc(C(F)(F)F)c1 [Compound B, hydrochloride, reference compound]: 12

[P] CC1(C)CN(c2ncc(C(=O)N(CCF)c3cccc(C(F)(F)F)c3)c(N)n2)C(=O)N1
[Q] CC1(C)CN(c2ncc(C(=O)N(CC(F)(F)F)c3cccc(C(F)(F)F)c3)c(N)n2)C(=O)N1 [Example 1, hydrochloride]
Two entries are listed, P and Q . Which one carries the higher metabolised at 3 h? Refer to your chosen item by its label in the answer. P
